Target: FimHtrCl#4 (Escherichia coli, UniProt P08191, G94E/N91S/S99N/V48A)
Construct: coding for the lectin domain of FimH (residues 1-158) with a C-terminal 6-histidine tag; made in house; host or cells: E. coli HB101 (lacking the fim operon), periplasmic extract, plasmid pMAS146
Sequence (P08191 22-179 V48A/N91S/G94E/S99N): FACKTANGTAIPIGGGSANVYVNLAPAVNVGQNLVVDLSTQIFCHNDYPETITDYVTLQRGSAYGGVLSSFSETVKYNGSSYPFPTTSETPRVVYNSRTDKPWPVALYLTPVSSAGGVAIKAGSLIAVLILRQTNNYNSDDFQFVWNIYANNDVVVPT
Experiment: biochemical
Format: binding, E. coli UPEC (Cl#4) strain
Conditions: Table 3, calculated from KD
metric: ΔG° CI#4
Respond with the figure and its unit, in that order.

Some entries whose results are on file:
1. OC[C@H]1O[C@H](O)[C@@H](O)[C@@H](O)[C@@H]1O = -7.0 kcal/mol
2. OC[C@H]1O[C@H](O[C@@H]2[C@@H](OC[C@H]3OC(O)[C@@H](O)[C@@H](O)[C@@H]3O)O[C@H](CO)[C@@H](O)[C@@H]2O)[C@@H](O)[C@@H](O)[C@@H]1O (stereo partly drawn) = -8.0 kcal/mol

Value sought: ΔG° CI#4, system FimHtrCl#4 (Escherichia coli, UniProt P08191, G94E/N91S/S99N/V48A), item OC[C@H]1O[C@H](O[C@@H]2[C@H](O)[C@@H](OC[C@H]3OC(O)[C@@H](O)[C@@H](O)[C@@H]3O)O[C@H](CO)[C@H]2O)[C@@H](O)[C@@H](O)[C@@H]1O (stereo partly drawn) . Result: -8.5 kcal/mol

ΔG° CI#4 on FimHtrCl#4 (Escherichia coli, UniProt P08191, G94E/N91S/S99N/V48A) for OC[C@H]1O[C@H](OC[C@H]2O[C@H](OC[C@H]3OC(O)[C@@H](O)[C@@H](O)[C@@H]3O)[C@@H](O)[C@@H](O)[C@@H]2O)[C@@H](O)[C@@H](O)[C@@H]1O (stereo partly drawn) is -7.3 kcal/mol

Value (ΔG° CI#4, FimHtrCl#4 (Escherichia coli, UniProt P08191, G94E/N91S/S99N/V48A)) for record OC[C@H]1O[C@H](O[C@@H]2[C@@H](O[C@@H]3C(O)O[C@H](CO)[C@@H](O)[C@@H]3O)O[C@H](CO)[C@@H](O)[C@@H]2O)[C@@H](O)[C@@H](O)[C@@H]1O (stereo partly drawn) = -7.7 kcal/mol

Note to self: ΔG° CI#4 of OC[C@H]1O[C@H](O[C@@H]2[C@@H](O[C@H]3[C@H](O)[C@@H](CO)OC(O)[C@H]3O)O[C@H](CO)[C@@H](O)[C@@H]2O)[C@@H](O)[C@@H](O)[C@@H]1O (stereo partly drawn) with FimHtrCl#4 (Escherichia coli, UniProt P08191, G94E/N91S/S99N/V48A) was -7.7 kcal/mol
